molecular target: Lck (Homo sapiens, UniProt P06239); construct: Kinases are expressed as either kinase domains or full length constructs; made in house; assay: Kinase inhibition assay (33P transfer), Lck; format: biochemical; conditions: Table 3; read-out: Lck-1
Sequence (P06239 whole entry, species assumed, the tested form may be a part): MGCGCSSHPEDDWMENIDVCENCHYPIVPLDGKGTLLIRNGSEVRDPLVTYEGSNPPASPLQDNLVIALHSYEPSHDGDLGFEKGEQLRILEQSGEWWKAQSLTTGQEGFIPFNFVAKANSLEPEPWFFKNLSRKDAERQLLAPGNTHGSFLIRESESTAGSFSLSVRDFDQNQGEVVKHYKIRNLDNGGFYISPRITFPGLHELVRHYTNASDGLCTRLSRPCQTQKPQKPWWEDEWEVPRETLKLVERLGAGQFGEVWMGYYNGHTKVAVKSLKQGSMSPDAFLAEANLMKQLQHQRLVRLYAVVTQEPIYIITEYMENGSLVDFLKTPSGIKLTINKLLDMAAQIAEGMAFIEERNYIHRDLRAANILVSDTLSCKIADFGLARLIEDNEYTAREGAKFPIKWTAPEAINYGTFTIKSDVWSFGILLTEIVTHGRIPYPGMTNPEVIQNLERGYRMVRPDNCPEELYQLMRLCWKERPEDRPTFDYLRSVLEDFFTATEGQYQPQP
result_type: IC50

COc1ccc(Nc2ncnc(Nc3ccc(Br)cc3F)n2)cc1OC; 5.71 to 8.33 µM
COc1cc(Nc2ncnc(-n3cccc3)n2)cc(OC)c1OC; 7.33 to 10.7 µM
Nc1ncnc(Nc2ccc(C3CCCCC3)cc2)n1; > 16.7 µM
COc1ccc(Nc2ncnc(Nc3cc(OC)c(OC)c(OC)c3)n2)cc1; 1.04 to 6.26 µM
COc1cc(Nc2ncnc(Nc3cccc(OCc4ccccc4)c3)n2)cc(OC)c1OC; > 9.79 µM

Exercise: Value lookup for IC50; key = `COc1ccc(Nc2ncnc(Nc3cccc(Br)c3)n2)cc1OC`
Key: 8.7 to 11.2 µM

Exercise: What would you report for `COc1cc(Nc2ncnc(-n3c(Nc4ccccc4C)nc4ccccc43)n2)cc(OC)c1OC` ?
Key: < 0.827 µM

Exercise: For `CC[C@H]1CN(c2ccc(-c3ncnc(Nc4cc(OC)c(OC)c(OC)c4)n3)cn2)CCN1` then?
Key: > 9.97 µM

Exercise: # iterate: `COc1cc(Nc2ncnc(N3CCc4ccccc43)n2)cc(OC)c1OC`
Key: 1.05 to 6.33 µM

Exercise: Same question, `CC(C)(C)OC(=O)Nc1ccc(Nc2ncnc(Nc3ccc(OCc4ccccc4)cc3)n2)cc1` this time
Key: > 9.29 µM

Exercise: What do we get for `COC(=O)c1sccc1Nc1ncnc(Nc2cc(OC)c(OC)c(OC)c2)n1` ?
Key: 8.38 to 10.8 µM

Values were extracted from patent US7074789B2.
